- Test Protocol: A CellTox Green Cytotoxicity Assay to monitor cytotoxicity in HEK293 cells - 8 hour (AID 1224884); note: nearly all actives have a fitted effect of over 35% in size; note: potency is the fitted concentration of half-maximal effect
- Condition Details: CellTox Green fluorescence; series mostly up to 76.8 µM
Records with an inconclusive call do not appear. The source made the active and inactive calls. Calls come from the whole dose curve; as a rule, active = well fitted activation curve with a large enough effect in the repeat runs; inconclusive = weak or mixed curves; inactive = flat fitted curve, though single readings scatter.
Observable: Potency

Solved cases (10 shown):
[[record]]
molecule = "CC1(C)[C@H](C(=O)OCc2cccc(Oc3ccccc3)c2)[C@@H]1C=C(Cl)Cl"
observable = "Potency"
result = "inactive"

[[record]]
molecule = "CCN(CC)c1ccc(C=O)c(O)c1"
observable = "Potency"
result = "inactive"

[[record]]
molecule = "c1ccc(C[P+](c2ccccc2)(c2ccccc2)c2ccccc2)cc1"
observable = "Potency"
result = "inactive"

[[record]]
molecule = "CCSCC"
observable = "Potency"
result = "inactive"

[[record]]
molecule = "Cc1ccc(N=Nc2c(O)ccc3ccccc23)c(C)c1"
observable = "Potency"
result = "inactive"

[[record]]
molecule = "CN1CCN(CCCN2c3ccccc3Sc3ccc(Cl)cc32)CC1"
observable = "Potency"
result = "inactive"

[[record]]
molecule = "CCN(CC)c1ccc(N=Nc2ccccc2)cc1"
observable = "Potency"
result = "inactive"

[[record]]
molecule = "CN(C[C@@H](CC[N+]12CCC(C3CCCCC3)(CC1)CC2)c1ccc(Cl)c(Cl)c1)C(=O)c1cc(C(F)(F)F)cc(C(F)(F)F)c1"
observable = "Potency"
result = "43.6 µM (active)"

[[record]]
molecule = "CCCCCCCC/C=C\\CCCCCCCC(=O)N(CCO)CCO"
observable = "Potency"
result = "inactive"

[[record]]
molecule = "CCc1c(C)cc(N)c(CC)c1N"
observable = "Potency"
result = "inactive"


Item: `CCCCCN=C(N)N/N=C/c1c[nH]c2ccc(OC)cc12` | Potency: 15.1 µM (active)

Lab note: measured Potency of O=C1OC(O)C(C(Cl)Cl)=C1Cl (stereo not drawn) was inactive

molecule `Cc1ccc2nc(-c3ccc(N)cc3)sc2c1S(=O)(=O)O` , Potency observed: inactive

// Potency value for `O=[N+]([O-])c1ccc(O)c2ncccc12` : inactive

GET /value?item= `CC/C=C(\C)C=O` &field=Potency returns inactive

// `CC/C(=C(/c1ccc(O)cc1)c1ccc(OCCN(C)C)cc1)c1ccccc1` : Potency value = 28.8 µM (active)

molecule `N#CCCOCCC#N` , Potency observed: inactive

# Potency (molecule: `Oc1ccc(C2(c3ccc(O)c(C4CCCCC4)c3)CCCCC2)cc1C1CCCCC1` ) is inactive

Notebook: `c1ccc2cc3c4ccccc4c4ccccc4c3cc2c1` , Potency read as inactive

----------
- Test Protocol: qHTS assay to identify small molecule agonists of the estrogen receptor beta (ER-beta) signaling pathway - cell viability counter screen (AID 1259380); note: nearly all actives have a fitted effect of over 30% in size
- Condition Details: ER-beta-bla HEK293T viability, CellTiter-Glo luminescence, 16 h; series mostly up to 92.4 µM
Inconclusive results are not listed. Activity calls are given as the source filed them. The call rests on the fitted dose curve; in most records, active means well fitted cell-killing curve with a large enough effect in the repeat runs; inconclusive means weak or mixed curves, or effect the other way; inactive means flat fitted curve, though single readings scatter.
Please state which outcome applies, choosing from 1 (yes) for active, 0 (no) for inactive

[[record]]
compound = "Cn1c(=O)[nH]c2ncn(C)c2c1=O"
assigned_class = "0 (no)"


Query: Test call, this compound: `CCn1c2ccccc2c2ccccc21`
Result: 0 (no)

Query: I'd appreciate the recorded outcome for `C/C=C/C(=O)C1=C(C)C=CCC1(C)C` from this test.
Result: 0 (no)
